- Species on record: Homo sapiens
- experiment: Inhibitory activity of the compound against Thromboxane TXB2 production in human blood platelets
- Type: functional
outcome.measure: IC50 (nM)
// note: answer is a bare numeric in nM

(Q) Sample O=C(O)/C=C/c1ccc(Cn2ccnc2)cc1 — what was its IC50?
(A) 1900

###

- Species: Rattus norvegicus
- experiment: In vitro inhibition of Thromboxane B2 (TXB2) production in glycogen-induced peritoneal cells of rat
- Type: functional, cell-based
outcome.measure: IC50 (nM)
Enter your answer as a number in nM; do not include the unit.

// below: answered compounds
>  <compound.structure.string>
COC1=C(/C=C(\CCCCCc2cccnc2)C(=O)O)C(=O)C(C)=CC1=O

>  <IC50 [nM]>
500

$$$$
>  <compound.structure.string>
COC1=C(C)C(=O)C(/C=C(\CCCCc2cccnc2)C(=O)O)=C(C)C1=O

>  <IC50 [nM]>
90

$$$$

(Q) // returns reported IC50 for input CCCCCCCOC1=C(C)C(=O)C(/C=C(\CCCCCc2cccnc2)C(=O)O)=C(C)C1=O
(A) 160
